Hello, the source for this data is patent US11834454B2, in case you need it.

biological target: BaF3-CD74-NTRK1 (Homo sapiens, UniProt P04629); construct: fused on or other part: P04233 (HLA class II histocompatibility antigen gamma chain); assay: Cell proliferation inhibition, Ba/F3-TRKs stable strain (CCK-8); conditions: 72 hours, read-out: cell viability IC50 CD74-NTRK1
Sequence (P04629 510-796 limits assumed): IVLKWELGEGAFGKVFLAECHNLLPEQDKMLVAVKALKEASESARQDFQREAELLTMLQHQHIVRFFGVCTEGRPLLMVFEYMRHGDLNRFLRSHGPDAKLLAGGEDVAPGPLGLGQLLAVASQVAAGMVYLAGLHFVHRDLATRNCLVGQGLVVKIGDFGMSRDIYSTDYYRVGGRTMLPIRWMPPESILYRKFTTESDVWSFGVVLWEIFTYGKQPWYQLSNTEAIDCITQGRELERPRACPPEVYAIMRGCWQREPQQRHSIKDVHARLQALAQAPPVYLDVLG
pIC50: −log10 of the molar value.
Parameter: pIC50. Scope: all listed entries.
metric: pIC50

INSERT INTO results (cpd_smiles, value) VALUES
  ('Cc1c(C#Cc2cnc3ccc(N4CC[C@H](O)C4)nn23)cccc1C(=O)Nc1cc(Cl)cc(C(F)(F)F)c1', '6.00 to 7.00'),
  ('Cc1c(C#Cc2cnc3ccc(N4CCN(C)[C@H](C)C4)nn23)cccc1C(=O)Nc1cc(Cl)cc(C(F)(F)F)c1', '7.00 to 8.00'),
  ('Cc1c(C#Cc2cnc3ccc(N4CCOCC4)nn23)cccc1C(=O)Nc1cc(CN2CCN(C)CC2)cc(C(F)(F)F)c1', '> 8.00');

###

experiment: Pharmacokinetic and oral bioavailability tests in SD rats; type: in vivo; conditions: Sprague-Dawley (SD), rat, plasma, intravenous injection, 2.0 mg/kg
metric: half-life (h)

INSERT INTO measurements (cpd_smiles, metric, value) VALUES
  ('Cc1c(C#Cc2cnc3ccc(N4CCC(O)CC4)nn23)cccc1C(=O)Nc1cc(Cl)cc(C(F)(F)F)c1', 'half-life', 16.1);

###

Target: BaF3-ETV6-NTRK2-F633L (Homo sapiens, UniProt Q16620, F617L)
Construct: constructed pCDNA3.1(+) plasmid vector carrying genes such as; fused on or other part: P41212 (Transcription factor ETV6)
Sequence (Q16620 538-822 F617L limits assumed): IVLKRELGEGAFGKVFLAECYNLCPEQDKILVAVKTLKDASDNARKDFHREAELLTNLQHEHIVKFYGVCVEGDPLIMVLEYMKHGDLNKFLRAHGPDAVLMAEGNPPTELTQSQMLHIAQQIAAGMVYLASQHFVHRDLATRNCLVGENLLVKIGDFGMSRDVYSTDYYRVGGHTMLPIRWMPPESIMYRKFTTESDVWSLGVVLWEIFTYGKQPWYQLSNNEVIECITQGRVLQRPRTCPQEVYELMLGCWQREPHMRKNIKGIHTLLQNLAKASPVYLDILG
Assay: Drug-resistant cell proliferation inhibition (CCK-8)
Conditions: 72 hours, read-out: drug-resistant cell viability IC50
Method: […] Cell proliferation inhibitory activity study: The cells in logarithmic growth phase were seeded into 96-well plates at 8000-12000 cells/well, and the inhibitors at different concentrations of (0-10 μM) were added the next day, and the culture was continued for 72 hours; then 10 μL of Cell Counting Kit-8 Cell Counting Reagent (CCK-8 Reagent) was added to each well, and continued to incubate for 1-3 hours; then its absorbance at 450 nm and 650 nm were measured with a super microplate reader. […]
metric: IC50

INSERT INTO results (cpd_smiles, value) VALUES
  ('Cc1c(C#Cc2cnc3ccc(N4CCC(O)CC4)nn23)cccc1C(=O)Nc1cc(CN2CCN(C)CC2)cc(C(F)(F)F)c1', '100 to 1000 nM'),
  ('Cc1c(C#Cc2cnc3ccc(N4CCOCC4)nn23)cccc1C(=O)Nc1cc(CN2CCN(C)CC2)cc(C(F)(F)F)c1', '100 to 1000 nM'),
  ('Cc1cn(-c2cc(NC(=O)c3cccc(C#Cc4cnc5ccc(N6CCC(O)CC6)nn45)c3C)cc(C(F)(F)F)c2)cn1', '10 to 100 nM');

###

molecular target: BaF3-CD74-NTRK1-G595R (Homo sapiens, UniProt P04629, G595R); construct: constructed pCDNA3.1(+) plasmid vector carrying genes such as; fused on or other part: P04233 (HLA class II histocompatibility antigen gamma chain); assay: Drug-resistant cell proliferation inhibition (CCK-8); settings: 72 hours, read-out: drug-resistant cell viability IC50
Sequence (P04629 510-796 G595R limits assumed): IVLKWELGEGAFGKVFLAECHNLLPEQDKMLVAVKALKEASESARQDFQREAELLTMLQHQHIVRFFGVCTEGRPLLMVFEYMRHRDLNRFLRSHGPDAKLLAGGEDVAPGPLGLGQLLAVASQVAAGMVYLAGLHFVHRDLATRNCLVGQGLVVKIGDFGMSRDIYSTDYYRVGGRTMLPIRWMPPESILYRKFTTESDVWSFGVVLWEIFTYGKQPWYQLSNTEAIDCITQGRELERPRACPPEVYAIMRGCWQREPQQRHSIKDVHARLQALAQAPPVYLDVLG
metric: IC50

INSERT INTO measurements (cpd_smiles, value) VALUES
  ('Cc1cn(-c2cc(NC(=O)c3cccc(C#Cc4cnc5ccc(N6CCC(O)CC6)nn45)c3C)cc(C(F)(F)F)c2)cn1', '0.1 to 1 µM'),
  ('Cc1c(C#Cc2cnc3ccc(N4CCC(O)CC4)nn23)cccc1C(=O)Nc1cc(Cl)cc(C(F)(F)F)c1', '> 1 µM'),
  ('Cc1c(C#Cc2cnc3ccc(N4CCC(O)CC4)nn23)cccc1C(=O)Nc1cc(CN2CCN(C)CC2)cc(C(F)(F)F)c1', '0.1 to 1 µM'),
  ('Cc1c(C#Cc2cnc3ccc(N4CCOCC4)nn23)cccc1C(=O)Nc1cc(CN2CCN(C)CC2)cc(C(F)(F)F)c1', '0.1 to 1 µM');
